Experiment: nuclear p53 accumulation, HPV+ cells – imaging, p53-positive nuclei imaging, 24 h, 48 h (AID 1508601)
Conditions: 24/48 h, measured here: cell number at 48 h, Library stock concentration: 400 uM
Among all 5,700 compounds or so, about 85 (1%) were called active. The sample as a whole holds a higher share of actives than the screen did.

# molecule, nuclei count, normalised
rows = [
    ("Nc1ncn([C@@H]2O[C@@H](CO)[C@H](O)[C@@H]2O)c(=O)n1", "116%"),
    ("CCC(=O)N1CCN(c2ccc(-n3c(=O)ccc4cnc5ccc(-c6cnc7ccccc7c6)cc5c43)cc2C(F)(F)F)CC1", "49%"),
    ("CS(=O)(=O)N1CCN(Cc2cc3nc(-c4cccc5[nH]ncc45)nc(N4CCOCC4)c3s2)CC1", "93.5%"),
    ("c1cc(NCCc2c[nH]c3ccccc23)cc(Nc2ccncc2)c1", "107%"),
    ("O=C(Nc1ccc(-c2ccnc(Nc3ccc(N4CCOCC4)cc3)n2)cc1)C1CCCN1 (configuration not stated)", "109%"),
    ("OCc1c[nH]c2ccccc12", "105%"),
    ("CC(NC(=O)c1cc(Cl)ccc1Oc1ccc(F)cc1)c1ccc(C(=O)O)cc1 (configuration not stated)", "115%"),
    ("COc1cc(C(=O)NS(=O)(=O)c2ccccc2C)ccc1Cc1cn(C)c2ccc(NC(=O)OC3CCCC3)cc12", "108%"),
    ("CCCCN(Cc1ccc(C(=O)NO)cc1)C(=O)Nc1ccccc1", "101%"),
    ("CCC(C)C(NC(=O)C(C(C)CC)N(C)C(C)=O)C(=O)NC(C(=O)NC(CC(C)C)C(=O)[C@@]1(C)CO1)C(C)O (some centres not stated)", "39.9%"),
    ("CCc1cnn2c(NCc3ccc[n+]([O-])c3)cc(N3CCCCC3CCO)nc12 (configuration not stated)", "19.3%"),
    ("O=C(NOCC(O)CO)c1ccc(F)c(F)c1Nc1ccc(I)cc1F (configuration not stated)", "104%"),
    ("COc1cc(=C2C=c3ccccc3=N2)[nH]c1=Cc1[nH]c(C)cc1C", "75.4%"),
    ("CCCCc1nc2cc(C=CC(=O)NO)ccc2n1CCN(CC)CC", "86.3%"),
    ("COC(=O)N1C(=O)[C@](c2ccccc2)(C2CCCC2)N1C(=O)OC", "93.5%"),
    ("NC(=O)c1ccc(-c2nc(-c3ccc4c(c3)OCCO4)c(-c3ccccn3)[nH]2)cc1", "111%"),
    ("OC1CCC(Nc2ncc3nc(Nc4c(F)cc(F)cc4F)n(C4CCOC4)c3n2)CC1 (configuration not stated)", "111%"),
    ("CCCCc1ccc(N=CNO)c(C)c1", "96.8%"),
    ("CC(C)CC(C(=O)NC(Cc1ccc(OCc2ccccc2)cc1)C(=O)NC(C)(C)C)N(C)Cc1ccc(C(C)(C)C)cc1 (configuration not stated)", "105%"),
    ("Nc1ccccc1NC(=O)c1ccc(CNC(=O)OCc2cccnc2)cc1", "100%"),
    ("CC(C)C(N)C(=O)NC(Cc1ccccc1)C(=O)O (configuration not stated)", "100%"),
    ("CC(C)c1nn(-c2c(Cl)cccc2Cl)c2nc(Cc3ccc(OCCO)cc3)[nH]c(=O)c12", "25.1%"),
    ("CSCCC(NC=O)C(=O)NC(CC(C)C)C(=O)NC(Cc1ccccc1)C(=O)O (configuration not stated)", "91.9%"),
    ("CN1CCN(c2ccc(Nc3c4ccccc4nc4ccccc34)cc2)CC1", "103%"),
    ("O=Nc1c(O)[nH]c2c(Cl)c(Cl)ccc12", "99%"),
    ("CC(=O)NC(CC(C)C)C(=O)NC(CC(C)C)C(=O)NC(C=O)CCCN=C(N)N (configuration not stated)", "90.5%"),
    ("C#C[C@]1(O)CC[C@@H]2[C@@H]3CCc4cc(O)ccc4[C@@H]3CC[C@@]21C", "108%"),
    ("COc1ccc(Cn2ccc3ccc(C(=O)NO)cc32)cc1", "99.6%"),
    ("O=C(Cc1ccc(-c2ccc(OCCN3CCOCC3)cc2)cn1)NCc1ccccc1", "26.6%"),
    ("COc1ccc(-c2nc(N3CCOCC3)c3sc(CN(C)c4ncc(C(=O)NO)cn4)cc3n2)cn1", "21.1%"),
    ("CS(=O)(=O)c1cccc(CNc2nc(Nc3ccc4c(c3)CCC(=O)N4)ncc2C(F)(F)F)c1", "109%"),
    ("COc1cc(OC)cc(-c2ccc3ncc4ccc(=O)n(-c5ccc(N6CCNCC6)c(C(F)(F)F)c5)c4c3c2)c1", "107%"),
    ("Cc1ccc(NC(=O)c2ccc(CN3CCN(C)CC3)cc2)cc1Nc1nccc(-c2cccnc2)n1", "84.9%"),
    ("CC(C)(CO)c1cc2cc(NC(=O)C3(c4ccc5c(c4)OC(F)(F)O5)CC3)c(F)cc2n1CC(O)CO (configuration not stated)", "107%"),
    ("COc1ccc(-c2ccc3ncc4c(c3c2)n(-c2ccc(N3CCNCC3)c(C(F)(F)F)c2)c(=O)n4C)cn1", "39.8%"),
    ("Cc1c(CN2CCN(C(=O)C(C)O)CC2)sc2c(N3CCOCC3)nc(-c3cnc(N)nc3)nc12 (configuration not stated)", "112%"),
    ("Nc1ccccc1NC(=O)c1ccc(CNc2nccc(-c3cccnc3)n2)cc1", "107%"),
]

Data origin, for the record: PubChem BioAssay AID1508601
